For each of the molecules below, state its MIC.
- Tested on: G(−) bacterial strains
- protocol-description: Dilution antimicrobial susceptibility tests (MIC, NCCLS agar dilution / broth dilution)
- Type: cell-based, Gram-negative organisms
- experimental-parameters: strain #17 Morganella Morganii; unit assumed
Report the value in µg/mL with no unit label.

For the molecule shown here, C[C@@H](O)[C@H]1C(=O)N2C(C(=O)O)=C(CN3C[C@@H](O)[C@H](NC(=N)N)C3)[C@H](C)[C@H]12 , give the reported MIC.
2

For the molecule shown here, C[C@@H](O)C1C(=O)N2C(C(=O)O)=C(CN3CC[C@H](NC(=N)NS(C)(=O)=O)C3)[C@H](C)C12 (stereo partly shown) , give the reported MIC.
4

For the molecule shown here, C[C@@H](O)C1C(=O)N2C(C(=O)O)=C(CN3CC[C@H](C(=O)N(C)C)C3)[C@H](C)C12 (stereo partly shown) , give the reported MIC.
8

For the molecule shown here, C[C@@H](O)C1C(=O)N2C(C(=O)O)=C(CN3CC[C@H](NC(N)=O)C3)[C@H](C)C12 (stereo partly shown) , give the reported MIC.
8

For the molecule shown here, CC(=O)N[C@H]1CCN(CC2=C(C(=O)O)N3C(=O)C([C@@H](C)O)C3[C@H]2C)C1 (stereo partly shown) , give the reported MIC.
8

For the molecule shown here, CNC(=O)[C@H]1CCN(CC2=C(C(=O)O)N3C(=O)C([C@@H](C)O)C3[C@H]2C)C1 (stereo partly shown) , give the reported MIC.
4

For the molecule shown here, C[C@@H](O)C1C(=O)N2C(C(=O)O)=C(CN3CC(NC(=N)N)C3)[C@H](C)C12 (stereo partly shown) , give the reported MIC.
2

###

- Test system: G(−) bacterial strains
- protocol-description: Dilution antimicrobial susceptibility tests (MIC, NCCLS agar dilution / broth dilution)
- Format: cell-based, Gram-negative organisms
- experimental-parameters: strain #24 Serratia marcescens; unit assumed
readout-type: MIC
Reply with the number, then its unit.

For the compound shown here, CNC(=O)[C@H]1CCN(CC2=C(C(=O)O)N3C(=O)C([C@@H](C)O)C3[C@H]2C)C1 (stereo partly shown) [Compound 127] , give the reported MIC.
2 µg/mL

For the compound shown here, CC(=O)N[C@H]1CCN(CC2=C(C(=O)O)N3C(=O)C([C@@H](C)O)C3[C@H]2C)C1 (stereo partly shown) [Compound 32] , give the reported MIC.
2 µg/mL

For the compound shown here, C[C@@H](O)C1C(=O)N2C(C(=O)O)=C(CN3CC[C@H](NC(N)=O)C3)[C@H](C)C12 (stereo partly shown) [Compound 78] , give the reported MIC.
2 µg/mL

For the compound shown here, C[C@@H](O)C1C(=O)N2C(C(=O)O)=C(CN3CC[C@H](NC(=O)C(F)(F)F)C3)[C@H](C)C12 (stereo partly shown) [Compound 37] , give the reported MIC.
2 µg/mL

For the compound shown here, CC(O)C1C(=O)N2C(C(=O)O)=C(CN3CC(O)C(C(=N)N)C3)C(C)C12 (mixture of isomers) [Compound 185b] , give the reported MIC.
0.13 µg/mL

For the compound shown here, C[C@@H](O)C1C(=O)N2C(C(=O)O)=C(CN3CC[C@H](N(C)C)C3)[C@H](C)C12 (stereo partly shown) [Compound 46] , give the reported MIC.
1 µg/mL

For the compound shown here, C[C@@H](O)[C@H]1C(=O)N2C(C(=O)O)=C(CN3C[C@@H](O)[C@H](NC(=N)N)C3)[C@H](C)[C@H]12 [Compound 178] , give the reported MIC.
2 µg/mL

###

- System: G(−) bacterial strains
- protocol-description: Dilution antimicrobial susceptibility tests (MIC, NCCLS agar dilution / broth dilution)
- Assay type: cell-based, Gram-negative organisms
- experimental-parameters: strain #32 Pseudomonas aeruginosa, Cf-R; unit assumed
readout-type: MIC (µg/mL)
Report the value in µg/mL with no unit label.

Request - read-out MIC | tested on G(−) bacterial strains | molecule C[C@@H](O)C1C(=O)N2C(C(=O)O)=C(CN3CC[C@H](N)C3)[C@H](C)C12 (stereo partly shown)
2

Request - read-out MIC | tested on G(−) bacterial strains | molecule CN[C@H]1CCN(CC2=C(C(=O)O)N3C(=O)C([C@@H](C)O)C3[C@H]2C)C1 (stereo partly shown)
4

Request - read-out MIC | tested on G(−) bacterial strains | molecule C[C@@H](O)[C@H]1C(=O)N2C(C(=O)O)=C(CN3C[C@@H](O)[C@H](NC(=N)N)C3)[C@H](C)[C@H]12
2

Request - read-out MIC | tested on G(−) bacterial strains | molecule CNC(=O)[C@H]1CCN(CC2=C(C(=O)O)N3C(=O)C([C@@H](C)O)C3[C@H]2C)C1 (stereo partly shown)
8

###

- System: G(−) bacterial strains
- protocol-description: Dilution antimicrobial susceptibility tests (MIC, NCCLS agar dilution / broth dilution)
- Type: cell-based, Gram-negative organisms
- experimental-parameters: strain #24 Serratia marcescens; unit assumed
readout-type: MIC (µg/mL)
Report the value in µg/mL with no unit label.

For the compound shown here, C[C@@H](O)C1C(=O)N2C(C(=O)O)=C(CN3CC[C@H](C(=O)NS(N)(=O)=O)C3)[C@H](C)C12 (stereo partly shown) , give the reported MIC.
1

For the compound shown here, C[C@@H](O)C1C(=O)N2C(C(=O)O)=C(CN3CC(NS(N)(=O)=O)C3)[C@H](C)C12 (stereo partly shown) , give the reported MIC.
0.5

For the compound shown here, C[C@@H](O)C1C(=O)N2C(C(=O)O)=C(CN3CC[C@H](NC(=O)CNS(N)(=O)=O)C3)[C@H](C)C12 (stereo partly shown) , give the reported MIC.
2

For the compound shown here, C[C@@H](O)C1C(=O)N2C(C(=O)O)=C(CN3CC[C@H](CNC(=N)N)C3)[C@H](C)C12 (stereo partly shown) , give the reported MIC.
4

For the compound shown here, C[C@@H](O)C1C(=O)N2C(C(=O)O)=C(CN3CC[C@H](C(=O)NCC(N)=O)C3)[C@H](C)C12 (stereo partly shown) , give the reported MIC.
2

For the compound shown here, C[C@@H](O)C1C(=O)N2C(C(=O)O)=C(CN3CC[C@H](NC(=N)N)C3)[C@H](C)C12 (stereo partly shown) , give the reported MIC.
2

For the compound shown here, C[C@@H](O)C1C(=O)N2C(C(=O)O)=C(CN3CC[C@@H](N)C3)[C@H](C)C12 (stereo partly shown) , give the reported MIC.
1

###

For each of the molecules below, state its MIC.
- Tested on: G(−) bacterial strains
- protocol-description: Dilution antimicrobial susceptibility tests (MIC, NCCLS agar dilution / broth dilution)
- Type: cell-based, Gram-negative organisms
- experimental-parameters: strain #32 Pseudomonas aeruginosa, Cf-R; unit assumed

For the molecule shown here, C[C@@H](O)C1C(=O)N2C(C(=O)O)=C(CN3CC[C@H](NC(=N)NS(C)(=O)=O)C3)[C@H](C)C12 (stereo partly shown) , give the reported MIC.
8 µg/mL

For the molecule shown here, CC(=O)NC(=N)N[C@H]1CCN(CC2=C(C(=O)O)N3C(=O)C([C@@H](C)O)C3[C@H]2C)C1 (stereo partly shown) , give the reported MIC.
4 µg/mL

For the molecule shown here, C[C@@H](O)C1C(=O)N2C(C(=O)O)=C(CN3CC(NC(=N)N)C3)[C@H](C)C12 (stereo partly shown) , give the reported MIC.
1 µg/mL

For the molecule shown here, C[C@@H](O)C1C(=O)N2C(C(=O)O)=C(CN3CC[C@H](NC=N)C3)[C@H](C)C12 (stereo partly shown) , give the reported MIC.
2 µg/mL

###

For each of the molecules below, state its MIC.
- Test system: G(−) bacterial strains
- protocol-description: Dilution antimicrobial susceptibility tests (MIC, NCCLS agar dilution / broth dilution)
- Type: cell-based, Gram-negative organisms
- experimental-parameters: strain #8 Enterobacter cloacae, Cf-R, B+; unit assumed
Report the value in µg/mL with no unit label.

For the molecule shown here, CNC(=O)[C@H]1CCN(CC2=C(C(=O)O)N3C(=O)C([C@@H](C)O)C3[C@H]2C)C1 (stereo partly drawn) , give the reported MIC.
0.5

For the molecule shown here, C[C@@H](O)C1C(=O)N2C(C(=O)O)=C(CN3CC[C@H](N)C3)[C@H](C)C12 (stereo partly drawn) , give the reported MIC.
0.25

For the molecule shown here, C[C@@H](O)C1C(=O)N2C(C(=O)O)=C(CN3CC[C@@H](N)C3)[C@H](C)C12 (stereo partly drawn) , give the reported MIC.
0.25

For the molecule shown here, C[C@@H](O)C1C(=O)N2C(C(=O)O)=C(CN3CC[C@H](C(=O)NCC(N)=O)C3)[C@H](C)C12 (stereo partly drawn) , give the reported MIC.
0.5

For the molecule shown here, C[C@@H](O)[C@H]1C(=O)N2C(C(=O)O)=C(CN3CC(O)C(NC(=N)N)C3)[C@H](C)[C@H]12 (mixture of isomers) , give the reported MIC.
0.063

For the molecule shown here, C[C@@H](O)C1C(=O)N2C(C(=O)O)=C(CN3CC(C(N)=O)C3)[C@H](C)C12 (stereo partly drawn) , give the reported MIC.
0.063

For the molecule shown here, C[C@@H](O)C1C(=O)N2C(C(=O)O)=C(CN3CC[C@H](C(=O)NS(N)(=O)=O)C3)[C@H](C)C12 (stereo partly drawn) , give the reported MIC.
0.25

For the molecule shown here, C[C@@H](O)C1C(=O)N2C(C(=O)O)=C(CN3CC[C@@H](NC(=N)N)C3)[C@H](C)C12 (stereo partly drawn) , give the reported MIC.
0.5

For the molecule shown here, CC(O)C1C(=O)N2C(C(=O)O)=C(CN3CC(O)C(C(=N)N)C3)C(C)C12 (mixture of isomers) [Compound 185b] , give the reported MIC.
0.063

For the molecule shown here, C[C@@H](O)C1C(=O)N2C(C(=O)O)=C(CN3CC[C@H](NC(=O)C(F)(F)F)C3)[C@H](C)C12 (stereo partly drawn) , give the reported MIC.
0.5

For the molecule shown here, C[C@@H](O)C1C(=O)N2C(C(=O)O)=C(CN3CC(N)C3)[C@H](C)C12 (stereo partly drawn) , give the reported MIC.
0.25

For the molecule shown here, C[C@@H](O)C1C(=O)N2C(C(=O)O)=C(CN3CC[C@H](C(=O)NS(C)(=O)=O)C3)[C@H](C)C12 (stereo partly drawn) , give the reported MIC.
0.25

For the molecule shown here, C[C@@H](O)C1C(=O)N2C(C(=O)O)=C(CN3CC[C@H](NC(N)=O)C3)[C@H](C)C12 (stereo partly drawn) , give the reported MIC.
0.5

For the molecule shown here, C[C@@H](O)C1C(=O)N2C(C(=O)O)=C(CN3CC[C@H](NC=N)C3)[C@H](C)C12 (stereo partly drawn) , give the reported MIC.
0.25

For the molecule shown here, C[C@@H](O)C1C(=O)N2C(C(=O)O)=C(CN3CC[C@H](NCC(N)=O)C3)[C@H](C)C12 (stereo partly drawn) , give the reported MIC.
0.5
